Measured %Inh by item
Tested on: PFTK1;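 note: KINOMEscan kinase panel screen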
Construct: gene CDK14
Conditions: concentration: 1 μM, replicates: in singlicate; n = 1
Recorded endpoint: %Inh (%)

INSERT INTO results (molecule, unit_label, value_observed) VALUES
  ('Cn1cc(-c2cnc(N)c3c(-c4ccc5c(c4)CCN5C(=O)Cc4ccccc4)csc23)cn1 [GSK2593074]', '%', 0),
  ('Cc1ccc(-c2ccc3occ(-c4ccc(S(C)=O)cc4)c3c2)nn1 (stereo not shown)', '%', 6),
  ('N#Cc1cnc2cc(-c3cnc(CNCCN4CCOCC4)s3)ccc2c1Nc1ccc(Oc2ccccc2)cc1 [GW664114]', '%', 18),
  ('Cc1ccc(C)c(NC(=O)Nc2ccc(C)c(-c3ccc(C(=O)Nc4ccncc4)cc3)c2)c1 [GSK1398473]', '%', 14),
  ('O=C(Nc1n[nH]c2nc(-c3cccc(O)c3)ccc12)C1CC1 [SB-711805]', '%', 4),
  ('COc1ccc(C2=C(Nc3cccc(O)c3)C(=O)NC2=O)cc1 [SB-390766]', '%', 13),
  ('O=C(Nc1c(F)cccc1F)c1cc(C(=O)c2ccccc2F)c[nH]1 [GSK1326180]', '%', 20),
  ('Cl.Cl.NC(CNC(=O)c1cc(Br)c(-c2ccnc3[nH]ccc23)s1)c1ccccc1 (stereo not shown) [GSK1322949]', '%', 22),
  ('CN(c1ccc(F)c(NC(=O)c2cccc(OC(C)(C)C#N)c2Cl)c1)c1ccc2nc(NC(=O)C3CC3)sc2n1', '%', 0),
  ('COc1ccc(NC(=O)c2ccoc2)cc1-c1ccc(C(=O)NCC2CC2)cc1 [GW810437]', '%', 47),
  ('CSc1ccc(NC2=C(c3ccc(Cl)cc3)C(=O)NC2=O)cc1 [SB-317658]', '%', 8),
  ('Cc1ccc(O)cc1Nc1ccnc2ccc(C(C)(C)C)cc12 [GW856805]', '%', 21),
  ('CNc1nccc(-c2ccc3c(N)n[nH]c3c2)n1 [GSK2206003]', '%', 10),
  ('CCNc1nccc(-c2c(-c3ccc(F)cc3)ncn2C2CCN(C)CC2)n1', '%', 1),
  ('Cc1nn2c(=O)cc(N3CCO[C@H](C)C3)nc2n1Cc1cccc(Cl)c1Cl [GSK2373693]', '%', 5),
  ('COc1cccc(NC(=O)NCCNc2ccnc(Nc3ccc(F)cc3)n2)c1 [GSK1379879]', '%', 18),
  ('COC(=O)Nc1nc2ccc(Oc3ccc(CC(=O)Nc4cc(C(F)(F)F)ccc4F)cc3)cc2[nH]1 [GW680903]', '%', 14),
  ('Cc1cccc(Nc2nc(N[C@H]3CCCC[C@H]3N)ncc2C(N)=O)c1.Cl [GSK986310]', '%', 29),
  ('Nc1ncc(-c2ccc3nccc(-c4ccncc4)c3c2)cc1S(=O)(=O)N1CCCCC1 [GSK1693850]', '%', 47),
  ('CN(C)c1ncnc2nc[nH]c12 [SKF-31736]', '%', 5),
  ('COc1cc(Nc2ccnc3cc(-c4ccncc4)ccc23)cc(OC)c1OC.Cl [GW494610]', '%', 0),
  ('Cc1ccccc1CC(=O)N1CCc2cc(-c3cn(C)c4ncnc(N)c34)ccc21 [GSK2603346]', '%', 3),
  ('NCCC(NC(=O)c1cc(Br)c(-c2ccnc3[nH]ccc23)s1)c1ccccc1.O=C(O)C(F)(F)F.O=C(O)C(F)(F)F (stereo not shown) [GSK1307810]', '%', 0),
  ('CN(C)CCOc1ccc(-c2cc(-c3ccc(Cl)c(O)c3)c(-c3ccncc3)[nH]2)cc1.Cl.Cl [SB-684387]', '%', 19),
  ('Cl.N#CCc1ccc(Nc2nccc(Nc3ccc(Oc4ccccc4)cc3)n2)cc1 [GW639905]', '%', 0);

Data credit: paper PMC5540273
